Measured kon values are reported for all entries that follow.
# Study system: T1, cTnI quality control product recombinant protein (human, UniProt P19429 1-210, limits assumed)
# T1 construct: the assay paragraphs only say cTnI; also called cardiac troponin I; cTnI antigen
# T1 sequence (P19429 whole entry): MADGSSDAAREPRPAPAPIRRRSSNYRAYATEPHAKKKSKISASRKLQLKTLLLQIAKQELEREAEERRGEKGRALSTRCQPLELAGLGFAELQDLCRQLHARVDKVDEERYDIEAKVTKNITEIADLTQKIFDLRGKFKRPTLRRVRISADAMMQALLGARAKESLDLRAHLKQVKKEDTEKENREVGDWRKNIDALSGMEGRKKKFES
# Method: AMC biosensor, antibody on sensor
API: value field is a number in M⁻¹ s⁻¹; no unit string.

The cases that follow already have their kon on record.
Mutation 1-45 (antibody, V domains shown) VH: QVQLQQSGTELAKPGASVKFSCKASGYTFSSYWMYWIKQRPGQGLEWIGYLNPSTGHTDYNQRFKDKATLTADKSSSTAYMQLNSLTSEDSAVYYCARKYWGPFGMDYWGQGTSVTVSS VL: EIFLTQSPAIMSASPGEKVTMTCSASSTVSYVHWYQQKSGTSPKRWLYDTSKLASGIPVRFSGSGSGTSYSLTISSMEAEDAATYYCQQWSSQPYTFGGGTKLEIKR; 26100
WT 1-1 (antibody, V domains shown) VH: QVQLQQSGTELAKPGASVKFSCKASDYTFSTYWMYWIKQRPGQGLEWIGYINPSTGHTEYNQKFKDKATLTADKSSSTAYMQLNSLTSEDSAVYYCARRYYGPFAMDYWGQGTSVTVSS VL: EIFLTQSPAIMSASPGEKVTMTCSASSSVSYAHWYQQKSGTSPKRWIYDSSKIASGIPVRFSGSGSGTSYSLTISSMEAEDAATYYCQNWSTNPYTFGGGTKLEIKR; 24100

Moving on to another binder below.
QUERY: Value lookup for kon; key = Mutation 1-19 (antibody, V domains shown) VH: QVQLQQSGTELAKPGASVKFSCKASGYTFTSYWMYWIKQRPGQGLEWIGYLNPSTGHTDYNQKFKDKATLTADKSSSTAYMQLNSLTSEDSAVYYCARRYYGPFGMDYWGQGTSVTVSS VL: EIFLTQSPAIMSASPGEKVTMTCSASSSVSYVHWYQQKSGTSPKRWIYDTSKLASGIPVRFSGSGSGTSYSLTISSMEAEDAATYYCQQWSSQPYTFGGGTKLEIKR
RESULT: 10900
